Cited source: patent US20120142771A1

As shown below, each of these compounds has a reported responders at 100 mg/kg value.
Test system: subcutaneously pentetrazol-injected model (scPTZ)
Experiment: Subcutaneously pentetrazol-injected model (scPTZ) test
Type: in vivo, mice
Conditions: Mus musculus, po, 1 h, 100 mg/kg oral, Slc: ddY male mice, 3 per group, pentetrazol 85 mg/kg s.c. after 1 hour, observed 30 minutes for clonic convulsion; read-out: scPTZ (positive number/tested number) (converted)
Write the value in % as a bare number.

Solved cases (9 shown):
1) NC(=O)C(O)c1ccc(F)cc1-c1cc(Cl)cc(Cl)c1 (stereo not shown) [Example 184] :: 66.7
2) CNC(=O)Cc1ccc(Cl)cc1-c1ccccc1F [Example 126] :: 100
3) CNC(=O)Cc1ccc(C(F)(F)F)cc1-c1ccccc1 [Example 33] :: 33.3
4) CNC(=O)C(OC)c1ccccc1-c1ccccc1 (stereo not shown) [Example 62] :: 33.3
5) NC(=O)Cc1ccccc1-c1cccc(Cl)c1 [Example 13, 2-(3′-chlorobiphenyl-2-yl)acetamide] :: 66.7
6) NC(=O)Cc1ccccc1-c1cccc(F)c1 [Example 25, 2-(3′-fluorobiphenyl-2-yl)acetamide] :: 100
7) NC(=O)Cc1ccc([N+](=O)[O-])cc1-c1ccccc1F [Example 113] :: 33.3
8) NC(=O)Cc1ccccc1-c1cccc(C(F)(F)F)c1 [Example 4] :: 66.7
9) CC(C(N)=O)c1ccccc1-c1cccc(Cl)c1 (stereo not shown) [Example 177] :: 33.3

Attention now shifts to the item below.
Task item: Could you tell me which responders at 100 mg/kg is on file for CNC(=O)Cc1ccccc1-c1cccc(C(F)(F)F)c1 [Example 5] ?
Reply: 66.7

---

Test system: subcutaneously pentetrazol-injected model (scPTZ)
Assay: Subcutaneously pentetrazol-injected model (scPTZ) test
Assay type: in vivo, mice
Settings: Mus musculus, po, 1 h, 50 mg/kg oral, Slc: ddY male mice, 3 per group, pentetrazol 85 mg/kg s.c. after 1 hour, observed 30 minutes for clonic convulsion; read-out: scPTZ (positive number/tested number) (converted)
QUANTITY: responders at 50 mg/kg (%)
Expressed in %, but write only the number.

Task item: Quick one: responders at 50 mg/kg of NC(=O)[C@H](O)c1ccccc1-c1ccccc1 (single isomer, unassigned) [Example 207, 2-(Biphenyl-2-yl)-2R-hydroxyacetamide] ?
Reply: 66.7

Task item: Look up responders at 50 mg/kg for this compound: NC(=O)Cc1ccccc1-c1ccc(Cl)cc1F [Example 68]
Reply: 0

Task item: Would you mind telling me what responders at 50 mg/kg value was observed for NC(=O)Cc1ccccc1-c1ccc(F)c(F)c1F [Example 89] ?
Reply: 33.3

Task item: Entry NC(=O)Cc1ccc(F)cc1-c1cc(Cl)cc(Cl)c1 [Example 150] : reported responders at 50 mg/kg = ?
Reply: 33.3

Task item: Bench note: what responders at 50 mg/kg did NC(=O)C(O)c1ccccc1-c1cc(F)c(F)c(F)c1 (stereo not drawn) [Example 193] show?
Reply: 100

Task item: Which responders at 50 mg/kg is listed for Cc1ccc(-c2ccccc2)c(CC(N)=O)c1 [Example 111] ?
Reply: 33.3

Task item: # get_value(readout='responders at 50 mg/kg', item= NC(=O)Cc1c(F)cccc1-c1cccc(F)c1 [Example 140, 2-(3,3′-difluorobiphenyl-2-yl)acetamide] )
Reply: 66.7

Task item: GET /values?readout=responders at 50 mg/kg&item= COC(C(N)=O)c1ccccc1-c1ccccc1 (stereo not drawn) [Example 61, 2-(Biphenyl-2-yl)-2-methoxyacetamide]
Reply: 0

Task item: Fill blank: measured responders at 50 mg/kg of the compound CNC(=O)Cc1ccccc1-c1cccc(C(F)(F)F)c1 [Example 5] is ____.
Reply: 33.3

---

System: subcutaneously pentetrazol-injected model (scPTZ)
Assay: Subcutaneously pentetrazol-injected model (scPTZ) test
Format: in vivo, mice
Conditions: Mus musculus, po, 1 h, 100 mg/kg oral, Slc: ddY male mice, 3 per group, pentetrazol 85 mg/kg s.c. after 1 hour, observed 30 minutes for clonic convulsion; read-out: scPTZ (positive number/tested number) (converted)
QUANTITY: responders at 100 mg/kg (%)
The reply should contain only the number, in %.

Task item: So what's the measured responders at 100 mg/kg for this one? CNC(=O)Cc1ccc(F)cc1-c1cccc(F)c1
Reply: 33.3

Task item: # responders at 100 mg/kg lookup, item CNC(=O)Cc1ccc(F)cc1-c1cc(Cl)cc(Cl)c1
Reply: 0

Task item: Look at this compound and give its reported responders at 100 mg/kg. CNC(=O)C(OC)c1ccccc1-c1ccc(F)cc1 (stereo not drawn)
Reply: 0

---

System: maximum electroshock seizure (MES) model
Assay: Maximum electroshock seizure (MES) model test
Format: in vivo, mice
Details: Mus musculus, po, 1 h, 50 mg/kg oral, Slc: ddY male mice, 3 per group, electrical stimulation 1 hour after administration; inhibition of hind limb extension; read-out: MES (positive number/tested number) (converted)
# responders at 50 mg/kg per entry
A number alone suffices; assume %.

The examples below pair each entry with its known result.
1) NC(=O)Cc1ccc([N+](=O)[O-])cc1-c1ccccc1F :: 66.7
2) NC(=O)Cc1cc(F)ccc1-c1ccc(F)cc1 [Example 114, 2-(4,4′-difluorobiphenyl-2-yl)acetamide] :: 100
3) NC(=O)Cc1ccc(F)cc1-c1cc(Cl)cc(Cl)c1 :: 100
4) CNC(=O)Cc1cc(F)ccc1-c1ccc(F)cc1 :: 100
5) NC(=O)Cc1ccccc1-c1ccc(F)c(F)c1 [Example 21, 2-(3′,4′-difluorobiphenyl-2-yl)acetamide] :: 33.3
6) NC(=O)Cc1ccccc1-c1ccc(C(F)(F)F)cc1 :: 0

Task item: Entry CNC(=O)Cc1cc(F)ccc1-c1ccccc1F has what responders at 50 mg/kg?
Reply: 100

Task item: Which measured responders at 50 mg/kg value corresponds to NC(=O)C(O)c1ccccc1-c1cc(F)c(F)c(F)c1 (stereo not drawn) ?
Reply: 100

Task item: responders at 50 mg/kg for NC(=O)C(O)c1cc(F)ccc1-c1ccccc1 (stereo not drawn) ?
Reply: 100

---

Tested on: subcutaneously pentetrazol-injected model (scPTZ)
Assay: Subcutaneously pentetrazol-injected model (scPTZ) test
Type: in vivo, mice
Conditions: Mus musculus, po, 1 h, 100 mg/kg oral, Slc: ddY male mice, 3 per group, pentetrazol 85 mg/kg s.c. after 1 hour, observed 30 minutes for clonic convulsion; read-out: scPTZ (positive number/tested number) (converted)
QUANTITY: responders at 100 mg/kg (%)
Use % as the unit, but write only the number.

1) CNC(=O)Cc1ccc(Cl)cc1-c1ccccc1 [Example 124] :: 100
2) CNC(=O)Cc1ccccc1-c1ccccc1F [Example 28] :: 66.7
3) O=C(Cc1ccccc1-c1ccccc1F)NC1CC1 [Example 172] :: 0
4) NC(=O)Cc1ccccc1-c1ccc(OC(F)(F)F)c(F)c1 [Example 70] :: 66.7
5) NC(=O)C(O)c1ccccc1-c1ccccc1F (single isomer, unassigned) [Example 213] :: 33.3

Task item: Given the entry CNC(=O)Cc1ccccc1-c1cccc(Br)c1 [Example 55] , report its measured responders at 100 mg/kg.
Reply: 0

Task item: For the compound shown here, COC(C(N)=O)c1ccccc1-c1ccccc1F (stereo not drawn) [Example 200] , give the reported responders at 100 mg/kg.
Reply: 66.7

Task item: Fill blank: measured responders at 100 mg/kg of the compound CNC(=O)Cc1c(F)cccc1-c1cccc(F)c1 [Example 141] is ____.
Reply: 0

Task item: Which responders at 100 mg/kg is reported for this compound? NC(=O)C(O)c1ccccc1-c1cc(F)c(F)c(F)c1 (stereo not drawn) [Example 193]
Reply: 66.7

Task item: Please report the recorded responders at 100 mg/kg for NC(=O)Cc1ccc(C(F)(F)F)cc1-c1ccccc1 [Example 32] .
Reply: 0

Task item: Quick one: responders at 100 mg/kg of CNC(=O)C(C)c1ccccc1-c1cccc(F)c1 (stereo not drawn) [Example 176] ?
Reply: 0

Task item: Requested field: responders at 100 mg/kg. Item: CNC(=O)C1(c2ccccc2-c2ccccc2F)CC1 [Example 157]
Reply: 66.7

---

Reported responders at 50 mg/kg by item:
System: maximum electroshock seizure (MES) model
Assay: Maximum electroshock seizure (MES) model test
Format: in vivo, mice
Details: Mus musculus, po, 1 h, 50 mg/kg oral, Slc: ddY male mice, 3 per group, electrical stimulation 1 hour after administration; inhibition of hind limb extension; read-out: MES (positive number/tested number) (converted)
Unit % implied. Number only.

1) NC(=O)C(O)c1ccccc1-c1cccc(F)c1 (single isomer, unassigned) [Example 211] :: 100
2) CNC(=O)C1(c2ccccc2-c2ccccc2)CC1 :: 0
3) NC(=O)C(O)c1ccc(F)cc1-c1ccccc1 (stereo not shown) :: 33.3
4) NC(=O)Cc1ccccc1-c1cccc(F)c1Cl :: 100
5) COC(C(N)=O)c1ccccc1-c1ccc(F)cc1 (stereo not shown) :: 33.3
6) NC(=O)Cc1c(F)cccc1-c1cccc(F)c1 [Example 140, 2-(3,3′-difluorobiphenyl-2-yl)acetamide] :: 100
7) NC(=O)Cc1ccccc1-c1ccc(Cl)cc1 :: 33.3
8) CNC(=O)C(F)(F)c1ccccc1-c1ccccc1 :: 33.3

Task item: Would you mind telling me what responders at 50 mg/kg value was observed for NC(=O)Cc1cc(Cl)ccc1-c1ccc(Cl)cc1 [Example 109, 2-(4,4′-dichlorobiphenyl-2-yl)acetamide] ?
Reply: 100

Task item: Requested read-out: responders at 50 mg/kg. Entry: CNC(=O)C(C)c1ccccc1-c1ccccc1F (stereo not shown)
Reply: 0

Task item: May I ask what responders at 50 mg/kg has been recorded for NC(=O)Cc1ccccc1-c1cc(F)ccc1F [Example 152, 2-(2′,5′-difluorobiphenyl-2-yl)acetamide] ?
Reply: 100
